# credit: patent US8785457B2

Assay Target: mTOR (Homo sapiens, UniProt P42345)
Construct: endogenous in cells; host or cells: Jurkat, clone E6-1 (ATCC TIB-152) cell lysate
Experiment: mTOR kinobeads assay (competitive binding in Jurkat cell lysate, immunodetection)
Assay Conditions: kinobeads assay, Table 6; read-out: Inhibition values (IC50) mTOR
pIC50: −log10 of the molar value.
Quantity Kind: pIC50

| Compound | Quantity Kind | Endpoint Result |
| --- | --- | --- |
| CCNC(=O)Nc1cc(F)c(-c2nc3c(c(N4CCOC[C@@H]4C)n2)CCN(C)C3)cc1F [Example 108] | pIC50 | 6.00 to 7.00 |
| CCNC(=O)Nc1ccc(-c2nc3c(c(N4CCOCC4)n2)CCN(C(C)=O)C3)cc1 [Example 97] | pIC50 | > 7.00 |
| CCNC(=O)Nc1ccc(-c2nc3c(c(N4CCOC[C@@H]4C)n2)CN(CC)C3)cc1 [Example 39] | pIC50 | > 7.00 |
| C[C@H]1COCCN1c1nc(-c2ccc(NC(=O)NCCN(C)C)cc2)nc2c1CN(C)C2 [Example 54] | pIC50 | 6.00 to 7.00 |
| CCNC(=O)Nc1ncc(-c2nc3c(c(N4CCOC[C@@H]4C)n2)CCN(C)C3)s1 [Example 106] | pIC50 | 6.00 to 7.00 |
| C[C@H]1COCCN1c1nc(-c2ccc(NC(=O)NC3CC3)cc2)nc2c1CN(C)C2 [Example 38] | pIC50 | > 7.00 |
| CC(=O)N1Cc2nc(-c3ccc(NC(=O)NC4CC4)cc3)nc(N3CCOC[C@@H]3C)c2C1 [Example 20] | pIC50 | > 7.00 |
| CC(=O)N1CCc2c(nc(-c3ccc(NC(=O)NC4CC4)cc3)nc2N2CCOC[C@@H]2C)C1 [Example 62] | pIC50 | > 7.00 |
| CCNC(=O)Nc1ccc(-c2nc3c(c(N4CCOC[C@@H]4C)n2)CCN(C(=O)C(C)(C)C)C3)cc1 [Example 58] | pIC50 | > 7.00 |
| CC(C)N1Cc2nc(-c3ccc(NC(=O)NC4CC4)cc3)nc(N3CCOC[C@@H]3C)c2C1 [Example 46] | pIC50 | > 7.00 |
| CCNC(=O)Nc1ccc(-c2nc3c(c(N4CCOC[C@@H]4C)n2)CCN(CC(C)C)C3)cc1.O=CO [Example 76, formate] | pIC50 | > 7.00 |
| CCOC(=O)N1Cc2nc(-c3ccc(NC(=O)Nc4ccc(CO)cc4)cc3)nc(N3CCOC[C@@H]3C)c2C1 [Example 119] | pIC50 | 6.00 to 7.00 |
| C[C@H]1COCCN1c1nc(-c2ccc(NC(=O)NC3CC3)cc2)nc2c1CN(C(=O)CCN1CCCC1=O)C2 [Example 132] | pIC50 | > 7.00 |
| CCNC(=O)Nc1ccc(-c2nc3c(c(N4CCOC[C@@H]4C)n2)CNC3)cc1 [Example 7] | pIC50 | > 7.00 |
| CCNC(=O)Nc1ccc(-c2nc3c(c(N4CCOC[C@@H]4C)n2)CCN(CC)C3)cc1 [Example 27] | pIC50 | > 7.00 |
| C[C@H]1COCCN1c1nc(-c2ccc(NC(=O)NC3CC3)cc2)nc2c1CNCC2 [Example 11] | pIC50 | 6.00 to 7.00 |
| CC(=O)NCCCC(=O)N1Cc2nc(-c3ccc(NC(=O)NC4CC4)cc3)nc(N3CCOC[C@@H]3C)c2C1 [Example 133] | pIC50 | > 7.00 |
| C[C@H]1COCCN1c1nc(-c2ccc(NC(=O)NCCO)cc2)nc2c1CN(C)C2 [Example 73] | pIC50 | > 7.00 |
| CNC(=O)Nc1ccc(-c2nc3c(c(N4CCOC[C@@H]4C)n2)CN(CC2CC2)C3)cc1 [Example 47] | pIC50 | > 7.00 |
| CCOC(=O)N1Cc2nc(-c3ccc(NC(=O)NC4CC4)cc3F)nc(N3CCOC[C@@H]3C)c2C1 [Example 131] | pIC50 | 6.00 to 7.00 |
| CCNC(=O)Nc1ccc(-c2nc3c(c(N4CCOC[C@@H]4C)n2)CN(S(C)(=O)=O)C3)cc1 [Example 32] | pIC50 | > 7.00 |
| CCNC(=O)N1CCc2c(nc(-c3ccc(NC(=O)NC4CC4)cc3)nc2N2CCOC[C@@H]2C)C1 [Example 88] | pIC50 | > 7.00 |

----------
Assay Target: PI3K delta (PI3 Kd) (Homo sapiens)
Construct: endogenous in cells; host or cells: Jurkat, clone E6-1 (ATCC TIB-152) cell lysate
Experiment: kinobeads assay, PI3K delta
Type: binding
Assay Conditions: kinobeads assay, Table 6; read-out: Inhibition values (IC50) PI3Kd
pIC50: −log10 of the molar value.
Reported pIC50 values for the following compounds.

| Molecule | pIC50 |
| --- | --- |
| CCOC(=O)N1Cc2nc(-c3ccc(NC(=O)NC4CC4)cc3)nc(N3CCOC[C@@H]3C)c2C1 | < 5.00 |
| CCNC(=O)Nc1ccc(-c2nc3c(c(N4CCOC[C@@H]4C)n2)CN(C(=O)OC)C3)cc1 | < 5.00 |
| C[C@H]1COCCN1c1nc(-c2ccc(NC(=O)NC3CC3)cc2)nc2c1CN(CC1CCNCC1)C2 | 5.00 to 6.00 |
| CCNC(=O)Nc1ccc(-c2nc3c(c(N4CCOCC4)n2)CCN(C(C)=O)C3)cc1 | 5.00 to 6.00 |
| C[C@H]1COCCN1c1nc(-c2ccc(NC(=O)NC3CC3)cc2)nc2c1CCN(CC1CC1)C2 | < 5.00 |
| Cc1cc(NC(=O)Nc2ccc(-c3nc4c(c(N5CCOC[C@@H]5C)n3)CN(C)C4)cc2)no1 | < 5.00 |
| CCNC(=O)Nc1ccc(-c2nc3c(c(N4CCOC[C@@H]4C)n2)CN(CC(C)(C)C)C3)cc1 | < 5.00 |
| C[C@H]1COCCN1c1nc(-c2ccc(NC(=O)NC3CC3)cc2)nc2c1CCN(C(=O)C1CC1)C2 | < 5.00 |
| C[C@H]1COCCN1c1nc(-c2ccc(NC(=O)NC3CC3)cc2)nc2c1CN(C(=O)CCN1CCCC1=O)C2 | 5.00 to 6.00 |

----------
The entries below come with measured pIC50 values attached.
Assay Target: PI3K delta (PI3 Kd) (Homo sapiens, UniProt O00329)
Construct: endogenous in cells; host or cells: Jurkat, clone E6-1 (ATCC TIB-152) cell lysate
Sequence (O00329 whole entry): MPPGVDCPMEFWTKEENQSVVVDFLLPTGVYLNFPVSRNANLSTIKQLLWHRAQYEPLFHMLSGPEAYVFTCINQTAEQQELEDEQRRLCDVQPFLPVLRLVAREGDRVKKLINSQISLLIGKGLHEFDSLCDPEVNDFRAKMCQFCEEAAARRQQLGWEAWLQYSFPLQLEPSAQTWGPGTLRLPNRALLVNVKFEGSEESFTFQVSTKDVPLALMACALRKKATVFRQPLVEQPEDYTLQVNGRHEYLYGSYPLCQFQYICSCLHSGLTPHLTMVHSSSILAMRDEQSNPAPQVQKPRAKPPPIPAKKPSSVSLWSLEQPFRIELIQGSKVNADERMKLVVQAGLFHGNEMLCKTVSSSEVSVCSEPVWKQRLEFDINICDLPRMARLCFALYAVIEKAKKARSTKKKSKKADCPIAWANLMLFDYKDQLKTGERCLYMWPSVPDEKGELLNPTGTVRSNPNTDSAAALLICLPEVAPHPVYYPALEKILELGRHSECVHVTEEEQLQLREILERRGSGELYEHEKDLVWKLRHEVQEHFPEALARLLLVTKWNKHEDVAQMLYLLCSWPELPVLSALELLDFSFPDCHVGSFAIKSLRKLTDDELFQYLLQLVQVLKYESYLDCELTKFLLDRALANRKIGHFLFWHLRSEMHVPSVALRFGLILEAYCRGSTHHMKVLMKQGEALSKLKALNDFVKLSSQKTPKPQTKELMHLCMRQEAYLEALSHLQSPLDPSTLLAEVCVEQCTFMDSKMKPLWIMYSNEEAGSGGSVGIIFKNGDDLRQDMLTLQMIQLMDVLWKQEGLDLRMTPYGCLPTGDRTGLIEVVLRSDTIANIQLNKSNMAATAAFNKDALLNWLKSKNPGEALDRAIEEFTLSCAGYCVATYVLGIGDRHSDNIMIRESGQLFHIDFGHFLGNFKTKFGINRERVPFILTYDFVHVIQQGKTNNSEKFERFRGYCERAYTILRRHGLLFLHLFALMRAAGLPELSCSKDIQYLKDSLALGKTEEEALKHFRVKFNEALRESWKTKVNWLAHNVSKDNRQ
Sequence (P27986 whole entry partner): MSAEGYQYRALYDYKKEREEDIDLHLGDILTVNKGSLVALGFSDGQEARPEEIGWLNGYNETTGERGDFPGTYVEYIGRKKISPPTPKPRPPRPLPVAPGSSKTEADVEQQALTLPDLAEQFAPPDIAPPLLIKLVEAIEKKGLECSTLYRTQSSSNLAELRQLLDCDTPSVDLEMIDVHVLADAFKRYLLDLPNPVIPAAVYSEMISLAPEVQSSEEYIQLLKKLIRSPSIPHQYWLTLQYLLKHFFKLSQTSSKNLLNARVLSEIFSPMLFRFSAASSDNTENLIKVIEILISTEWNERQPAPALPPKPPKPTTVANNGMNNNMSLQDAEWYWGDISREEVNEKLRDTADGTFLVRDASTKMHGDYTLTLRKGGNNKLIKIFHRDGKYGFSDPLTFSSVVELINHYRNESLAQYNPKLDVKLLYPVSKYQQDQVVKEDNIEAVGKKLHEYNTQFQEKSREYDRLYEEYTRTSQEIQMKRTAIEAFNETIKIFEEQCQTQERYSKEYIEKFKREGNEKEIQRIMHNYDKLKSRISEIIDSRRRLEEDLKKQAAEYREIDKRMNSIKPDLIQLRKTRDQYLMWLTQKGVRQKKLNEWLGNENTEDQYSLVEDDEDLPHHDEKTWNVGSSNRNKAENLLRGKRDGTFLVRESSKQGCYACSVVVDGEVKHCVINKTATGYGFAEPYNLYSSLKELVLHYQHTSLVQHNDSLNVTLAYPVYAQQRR
Experiment: kinobeads assay, PI3K delta
Assay type: binding
Assay Conditions: kinobeads assay, Table 4; read-out: Inhibition values (IC50) PI3Kd
Experimental: The compounds of the present invention as described were tested in the mTOR kinobeads assay as described below. […] Bound proteins were then eluted and the presence of mTOR, PI3K delta (PI3 Kd) and DNA-dependent protein kinase (DNA-PK) was detected and quantified using a specific antibody in a dot blot procedure and the Odyssey infrared detection system. […]
pIC50: −log10 of the molar value.

| Molecule | pIC50 |
| --- | --- |
| CCNC(=O)Nc1ccc(-c2nc3c(c(N4CCOC[C@@H]4C)n2)CN(C(=O)C(C)C)C3)cc1 [Example 21] | 5.00 to 6.00 |
| C[C@H]1COCCN1c1nc(-c2ccc(NC(=O)NC3CC3)cc2)nc2c1CCN(C(=O)C1CC1)C2 [Example 60] | < 5.00 |
| C[C@H]1COCCN1c1nc(-c2ccc(NC(=O)NC3CC3)cc2)nc2c1CNC2 [Example 3] | < 5.00 |
| CNC(=O)Nc1ccc(-c2nc3c(c(N4CCOC[C@@H]4C)n2)CN(CC2CC2)C3)cc1 [Example 47] | 5.00 to 6.00 |

----------
Assay Target: PI3K delta (PI3 Kd) (Homo sapiens, UniProt O00329)
Construct: endogenous in cells; host or cells: Jurkat, clone E6-1 (ATCC TIB-152) cell lysate
Experiment: kinobeads assay, PI3K delta
Type: binding
Assay Conditions: kinobeads assay, Table 6; read-out: Inhibition values (IC50) PI3Kd

| Molecule | IC50 |
| --- | --- |
| CNC(=O)Nc1ccc(-c2nc3c(c(N4CCOC[C@@H]4C)n2)CNC3)cc1 | 1 to 10 µM |
| C[C@H]1COCCN1c1nc(-c2ccc(NC(=O)NC3CC3)cc2)nc2c1CN(CC(F)(F)F)C2 | > 10 µM |
| CCNC(=O)Nc1ccc(-c2nc3c(c(N4CCOC[C@@H]4C)n2)CN(C2CCN(C(=O)OC)CC2)C3)cc1F | > 10 µM |
| CCNC(=O)Nc1ccc(-c2nc3c(c(N4CCOC[C@@H]4C)n2)CN(C(C)=O)C3)cc1 | 1 to 10 µM |

----------
Assay Target: PI3K delta (PI3 Kd) (Homo sapiens, UniProt O00329)
Construct: endogenous in cells; host or cells: Jurkat, clone E6-1 (ATCC TIB-152) cell lysate
Experiment: kinobeads assay, PI3K delta
Type: binding
Assay Conditions: kinobeads assay, Table 4; read-out: Inhibition values (IC50) PI3Kd
Quantity Kind: IC50

| Molecule | Assay Target | Endpoint Result |
| --- | --- | --- |
| CCNC(=O)Nc1ccc(-c2nc3c(c(N4CCOC[C@@H]4C)n2)CN(CC2CC2)C3)cc1 | PI3K delta (PI3 Kd) (Homo sapiens, UniProt O00329) | > 10 µM |
| CCNC(=O)Nc1ccc(-c2nc3c(c(N4CCOC[C@@H]4C)n2)CN(C(=O)OC(C)(C)C)CC3)cc1 | PI3K delta (PI3 Kd) (Homo sapiens, UniProt O00329) | > 10 µM |
| CCCNC(=O)Nc1ccc(-c2nc3c(c(N4CCOC[C@@H]4C)n2)CN(CC2CC2)C3)cc1 | PI3K delta (PI3 Kd) (Homo sapiens, UniProt O00329) | > 10 µM |
| CCNC(=O)Nc1ccc(-c2nc3c(c(N4CCOC[C@@H]4C)n2)CCN(C)C3)cc1 | PI3K delta (PI3 Kd) (Homo sapiens, UniProt O00329) | > 10 µM |
| CC(C)C(=O)N1Cc2nc(-c3ccc(NC(=O)NC4CC4)cc3)nc(N3CCOC[C@@H]3C)c2C1 | PI3K delta (PI3 Kd) (Homo sapiens, UniProt O00329) | > 10 µM |
| CCNC(=O)Nc1ccc(-c2nc3c(c(N4CCOC[C@@H]4C)n2)CCNC3)cc1 | PI3K delta (PI3 Kd) (Homo sapiens, UniProt O00329) | > 10 µM |
